From: patent US11396497B2

- System: MDA-MB-231 cells
- protocol text: MTT assay cytotoxicity MDA-MB-231
- condition description: read-out: Cytotoxicity MDA-MB-231 IC50; Table 4; MTT, 48 h
pIC50: −log10 of the molar value.
measure name: pIC50

INSERT INTO measurements (molecule, assay_target, measure_name, observed_measurement) VALUES
  ('CC[C@H](C)[C@@H]1C(=O)O[C@H]1C(=O)N[C@H](C(=O)N[C@H](C(=O)OCc1ccc(OC)cc1)C(C)C)C(C)C [Compound 11f]', 'MDA-MB-231 cells', 'pIC50', 6.58),
  ('C=CCOC(=O)[C@@H](NC(=O)[C@@H](NC(=O)[C@@H]1OC(=O)[C@H]1[C@@H](C)CC)C(C)C)C(C)C [Compound 11a]', 'MDA-MB-231 cells', 'pIC50', 6.56);

* * *

The entries below come with measured IC50 values attached.
- Test system: MCF7 cells
- protocol text: MTT assay cytotoxicity MCF7
- condition description: read-out: Cytotoxicity MCF7 IC50; Table 3; MTT, 48 h
measure name: IC50 (µM)

INSERT INTO measurements (compound, assay_target, observed_measurement) VALUES
  ('CC[C@H](C)[C@@H]1C(=O)O[C@H]1C(=O)N[C@@H](Cc1ccccc1)C(=O)N[C@@H](Cc1ccccc1)C(=O)OCc1ccccc1 [Compound 10d]', 'MCF7 cells', 3.62),
  ('CC[C@H](C)[C@@H]1C(=O)O[C@H]1C(=O)N[C@@H](COCc1ccccc1)C(=O)N[C@H](C(=O)OCc1ccccc1)C(C)C [Compound 10j]', 'MCF7 cells', 2.77),
  ('CC[C@H](C)[C@@H]1C(=O)O[C@H]1C(=O)N[C@H](C(=O)N[C@@H](Cc1ccccc1)C(=O)OCc1ccccc1)C(C)C [Compound 10c]', 'MCF7 cells', 2.3);

* * *

The entries below come with measured pIC50 values attached.
- Tested on: MDA-MB-231 cells
- protocol text: MTT assay cytotoxicity MDA-MB-231
- condition description: Homo sapiens, MDA-MB-231, 48 h, read-out: Cytotoxicity MDA-MB-231 IC50
pIC50: −log10 of the molar value.
measure name: pIC50

INSERT INTO measurements (compound, assay_target, measure_name, comparator, observed_measurement) VALUES
  ('CC[C@H](C)[C@@H]1C(=O)O[C@H]1C(=O)NCC(=O)N[C@H](C(=O)OCc1ccccc1)C(C)C [Compound 10a]', 'MDA-MB-231 cells', 'pIC50', '=', 6.02),
  ('CC(C)[C@H](NC(=O)[C@@H]1OC(=O)[C@H]1C1CC1)C(=O)N[C@H](C(=O)OCc1ccccc1)C(C)C', 'MDA-MB-231 cells', 'pIC50', '<', 4.00),
  ('CC[C@H](C)[C@@H]1C(=O)O[C@H]1C(=O)N[C@H](C(=O)N[C@H](C(=O)OCc1ccccc1)C(C)(C)C)C(C)(C)C [Compound 10g]', 'MDA-MB-231 cells', 'pIC50', '=', 6.02),
  ('CC(C)C[C@@H]1C(=O)O[C@H]1C(=O)N[C@H](C(=O)N[C@H](C(=O)OCc1ccccc1)C(C)C)C(C)C', 'MDA-MB-231 cells', 'pIC50', '=', 4.60);

* * *

The entries below come with measured IC50 values attached.
- assay target: immunoproteasome iβ5 subunit (Homo sapiens, UniProt P20618+P28062)
- Construct: purchased Enzo Life Sciences
- protocol text: Subunit selectivity, purified immunoproteasome iβ5
- Assay type: biochemical
- condition description: 8 μg/mL purified iCP; ± SD; read-out: iβ5 IC50
measure name: IC50 (nM)

INSERT INTO assay_data (compound, measure_name, unit_label, observed_measurement) VALUES
  ('CC[C@H](C)[C@@H]1C(=O)O[C@H]1C(=O)N[C@H](C(=O)N[C@@H](COCc1ccccc1)C(=O)NCc1ccccc1)C(C)C [Compound 12a]', 'IC50', 'nM', 33),
  ('CC[C@H](C)[C@@H]1C(=O)O[C@H]1C(=O)N[C@H](C(=O)N[C@@H](COCc1ccccc1)C(=O)OCc1ccccc1)C(C)C [Compound 10k]', 'IC50', 'nM', 9.1),
  ('CC(C)C1C(=O)OC1C(=O)N[C@H](C(=O)N[C@H](C(=O)O)C(C)C)C(C)C (stereo partly shown) [CysB, Cystargolide B, reference compound]', 'IC50', 'nM', 681),
  ('C=CCOC(=O)[C@@H](NC(=O)[C@@H](NC(=O)[C@@H]1OC(=O)[C@H]1[C@@H](C)CC)C(C)C)C(C)C [Compound 11a]', 'IC50', 'nM', 41.2);
